# PROCEDURE_DETAILS: self-splicing fitness, log relative to wild type (ln ratio); higher = more splicing; Tetrahymena group I intron in knt gene, E. coli kanamycin selection, DiMSum; sequences stand for … in CUCUCU…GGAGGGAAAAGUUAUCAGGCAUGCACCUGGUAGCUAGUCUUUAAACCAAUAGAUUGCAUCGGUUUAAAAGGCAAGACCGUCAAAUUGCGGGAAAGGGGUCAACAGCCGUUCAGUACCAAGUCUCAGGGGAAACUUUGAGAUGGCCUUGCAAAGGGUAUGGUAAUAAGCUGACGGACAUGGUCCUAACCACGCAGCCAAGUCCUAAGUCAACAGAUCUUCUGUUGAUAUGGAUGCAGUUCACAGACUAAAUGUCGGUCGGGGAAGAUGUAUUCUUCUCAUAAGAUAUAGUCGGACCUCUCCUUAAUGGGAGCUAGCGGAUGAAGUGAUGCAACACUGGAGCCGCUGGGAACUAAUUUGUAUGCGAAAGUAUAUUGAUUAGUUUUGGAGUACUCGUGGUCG;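 also: selection with 25 µg/mL kanamycin versus none on LB agar overnight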
# CONDITION_SUMMARY: 30 °C
Quick rule for you: self-splicing fitness (ln) at -3 or higher means criterion met, lower means criterion not met.

INPUT_SEQUENCE	LABEL
ACGAAGCAAUAUUACGUUAC	criterion not met
CAACAGCAAUAUUACGUUCC	criterion met
ACGCAGCAAUAUUACGAAGU	criterion not met
CGGCAGCAAUAUUACGUUCC	criterion met
AUGAAGCAAUAUUACGGCAA	criterion met
CUCCAGCAAUAUUACGAAAU	criterion met
CUCCAGCAAUAUUACGGAUC	criterion met

Please check the record `UCAAAGCAAUAUUACGUCUC` and state if its self-splicing fitness (ln) is at or above -3.
criterion not met

---

Field: self-splicing fitness (ln). Provide a value for each of the sequences that follow.
# PROCEDURE_DETAILS: self-splicing fitness, log relative to wild type (ln ratio); higher = more splicing; Tetrahymena group I intron in knt gene, E. coli kanamycin selection, DiMSum; sequences stand for … in CUCUCU…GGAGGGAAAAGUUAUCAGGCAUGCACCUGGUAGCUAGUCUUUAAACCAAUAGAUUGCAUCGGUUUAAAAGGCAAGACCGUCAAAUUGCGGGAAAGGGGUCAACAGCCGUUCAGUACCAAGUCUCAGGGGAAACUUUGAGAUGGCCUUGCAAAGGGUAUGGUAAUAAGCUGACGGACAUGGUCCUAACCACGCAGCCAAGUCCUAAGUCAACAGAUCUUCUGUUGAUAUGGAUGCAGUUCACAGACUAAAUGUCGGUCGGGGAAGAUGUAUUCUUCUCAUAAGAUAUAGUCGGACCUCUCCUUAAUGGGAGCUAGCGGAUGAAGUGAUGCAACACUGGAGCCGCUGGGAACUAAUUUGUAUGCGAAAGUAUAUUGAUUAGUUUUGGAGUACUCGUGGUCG
# CONDITION_SUMMARY: 37 °C

Below, 7 sequences whose answers are already recorded.
INPUT_SEQUENCE	self-splicing fitness (ln)
GCACAGCAAUAUUACGCCGG	-0.896
UUUCAGCAAUAUUACGUUGA	-1.85
GCGUAGCAAUAUUACGUGUG	-2.77
CACAAGCAAUAUUACGCAAA	-2.46
CUAUAGCAAUAUUACGACAC	-1.88
UUGAAGCAAUAUUACGACUU	0.101
AUUGAGCAAUAUUACGUACA	-1.87

Now turn to the next sequence.
// sample `GGAUAGCAAUAUUACGGAGA` , its self-splicing fitness (ln) was -2.33
